STATED_CONDITIONS: in n-butanol, 308.15 K
MEASUREMENT_LABEL: solubility (mole fraction)

Fill in: solubility (mole fraction) of `NNC(=O)c1ccccc1` is ___
0.0321

Likewise for `NNC(=O)c1ccccc1O` ?
0.0165

* * *

STATED_CONDITIONS: in ethanol, 303.15 K
Assign solubility (mole fraction) to each entry below.
Give the figure by itself; no unit, no explanation.

Given `NNC(=O)c1ccccc1` , state its recorded solubility (mole fraction).
0.0376

Please give the result for `NNC(=O)c1ccccc1O` too.
0.0189

* * *

STATED_CONDITIONS: in n-butanol, 298.15 K
MEASUREMENT_LABEL: solubility (mole fraction)
Keep it simple and answer with nothing but the number.

Could you share which solubility (mole fraction) value was measured for `NNC(=O)c1ccccc1O` ?
0.013

Next record, please: `NNC(=O)c1ccccc1`
0.0185

* * *

STATED_CONDITIONS: in isopropanol, 308.15 K
MEASUREMENT_LABEL: solubility (mole fraction)

Bench note: what solubility (mole fraction) did `NNC(=O)c1ccccc1` show?
0.0384

Also, `NNC(=O)c1ccccc1O` please.
0.0181

* * *

Give measured solubility (mole fraction) for each item. Keep answers brief.
STATED_CONDITIONS: in n-propanol, 323.15 K

Query: solubility (mole fraction); subject: `NNC(=O)c1ccccc1O`
0.0334

Same thing, different compound: `NNC(=O)c1ccccc1`
0.0834

* * *

Assign solubility (mole fraction) to each entry below.
STATED_CONDITIONS: in n-butanol, 283.15 K

Value lookup for solubility (mole fraction); key = `NNC(=O)c1ccccc1`
0.0087

Consider next the compound `NNC(=O)c1ccccc1O` in the same way.
0.00861

* * *

Assignment: determine reported solubility (mole fraction) for the given compounds.
STATED_CONDITIONS: in water, 288.15 K
Just the number, please.

Reported solubility (mole fraction) for `NNC(=O)c1ccccc1O` : what is it?
0.0146

Next record, please: `NNC(=O)c1ccccc1`
0.00662

* * *

What solubility (mole fraction) was measured for each of the following?
STATED_CONDITIONS: in n-propanol, 318.15 K

// solubility (mole fraction) lookup, key: `NNC(=O)c1ccccc1O`
0.0283

Also `NNC(=O)c1ccccc1` , if possible.
0.068

* * *

Hi there, I'd appreciate the recorded solubility (mole fraction) for every entry that follows.
STATED_CONDITIONS: in ethanol, 283.15 K
# answer = number (no unit)

Suppose we examine the compound `NNC(=O)c1ccccc1` ; what solubility (mole fraction) value has been reported?
0.0137

Consider next the compound `NNC(=O)c1ccccc1O` in the same way.
0.0095

* * *

For each record, write down the corresponding solubility (mole fraction).
STATED_CONDITIONS: in ethanol, 293.15 K
In your answer, state the number alone without any accompanying words.

If you can, please state the reported solubility (mole fraction) value of `NNC(=O)c1ccccc1` .
0.0203

Continue with `NNC(=O)c1ccccc1O`
0.0132

* * *

Exercise: for every item that follows, state its recorded solubility (mole fraction).
STATED_CONDITIONS: in methanol, 283.15 K
The answer should be a number; do not append a unit.

Quick one: solubility (mole fraction) for `NNC(=O)c1ccccc1` ?
0.0363

Note, next up: `NNC(=O)c1ccccc1O`
0.0122

* * *

STATED_CONDITIONS: in isopropanol, 283.15 K
MEASUREMENT_LABEL: solubility (mole fraction)
Hey, just send me the number, nothing else.

Would you kindly share the measured solubility (mole fraction) for `NNC(=O)c1ccccc1O` ?
0.00719

Same lookup for `NNC(=O)c1ccccc1` , please.
0.0112

* * *

STATED_CONDITIONS: in ethanol, 298.15 K
Task for the reader: assign each of the following molecules its reported solubility (mole fraction).
# respond with the number and nothing more

What does the data say about its solubility (mole fraction)? Entry: `NNC(=O)c1ccccc1O`
0.0161

Then what about the molecule `NNC(=O)c1ccccc1` ?
0.0283

* * *

STATED_CONDITIONS: in n-butanol, 318.15 K
For each entry below, report its solubility (mole fraction) value.

For the molecule `NNC(=O)c1ccccc1` , what solubility (mole fraction) is on record?
0.0519

Try `NNC(=O)c1ccccc1O` next.
0.0216

* * *

STATED_CONDITIONS: in isopropanol, 318.15 K
For each record, write down the corresponding solubility (mole fraction).
The reply should be a number, written without any unit.

Item under review: `NNC(=O)c1ccccc1` . Reported solubility (mole fraction)?
0.0623

Now consider `NNC(=O)c1ccccc1O` .
0.0261

* * *

STATED_CONDITIONS: in n-propanol, 288.15 K
MEASUREMENT_LABEL: solubility (mole fraction)
// return just the number, without any unit appended

Dear colleague, I am looking for the recorded solubility (mole fraction) of the following compound: `NNC(=O)c1ccccc1O`
0.0097

Field entry: `NNC(=O)c1ccccc1`
0.0155

* * *

STATED_CONDITIONS: in water, 283.15 K
MEASUREMENT_LABEL: solubility (mole fraction)
Number, no unit, nothing else.

Look up solubility (mole fraction): `NNC(=O)c1ccccc1O`
0.0122

Try this compound next: `NNC(=O)c1ccccc1`
0.00505

* * *

STATED_CONDITIONS: in water, 323.15 K
MEASUREMENT_LABEL: solubility (mole fraction)
Hey, just send me the number, nothing else.

# lookup: solubility (mole fraction) of `NNC(=O)c1ccccc1O`
0.0665

Request: `NNC(=O)c1ccccc1`
0.0453

* * *

STATED_CONDITIONS: in n-butanol, 303.15 K
I'd be grateful if you could share measured solubility (mole fraction) for these entries.

Name the reported solubility (mole fraction) value associated with the compound `NNC(=O)c1ccccc1`
0.0244

Also, `NNC(=O)c1ccccc1O` please.
0.0148

* * *

STATED_CONDITIONS: in n-butanol, 288.15 K
Give solubility (mole fraction) for every item shown.
Give the figure only, with no unit attached.

Entry under review: `NNC(=O)c1ccccc1O` . Reported solubility (mole fraction)?
0.00985

Now consider `NNC(=O)c1ccccc1` and answer again.
0.0107

* * *

STATED_CONDITIONS: in ethanol, 308.15 K
For each record, write down the corresponding solubility (mole fraction).
I only need the number, thanks.

I'd like to know its solubility (mole fraction). The compound in question is `NNC(=O)c1ccccc1`
0.0481

Next compound: `NNC(=O)c1ccccc1O`
0.0224

* * *

STATED_CONDITIONS: in methanol, 313.15 K
Hi there, I'd appreciate the recorded solubility (mole fraction) for every entry that follows.
Could you respond with only the numeric value?

// lookup solubility (mole fraction) for `NNC(=O)c1ccccc1O`
0.0326

What do you have for `NNC(=O)c1ccccc1` ?
0.103

* * *

Kindly supply the reported solubility (mole fraction) values for the records listed here.
STATED_CONDITIONS: in methanol, 293.15 K
Number only, no unit.

Give its solubility (mole fraction) value. Item: `NNC(=O)c1ccccc1O`
0.017

// next record `NNC(=O)c1ccccc1`
0.0515

* * *

STATED_CONDITIONS: in n-butanol, 323.15 K
Exercise: state measured solubility (mole fraction) for each of the compounds provided.
Answer with a bare number; do not write a unit.

What solubility (mole fraction) value was documented for this compound, `NNC(=O)c1ccccc1` ?
0.0665

How about this compound: `NNC(=O)c1ccccc1O`
0.025

* * *

Please provide measured solubility (mole fraction) for the entries that follow.
STATED_CONDITIONS: in water, 298.15 K
Would you mind answering with just the numeric figure?

Which solubility (mole fraction) reading was recorded for the molecule `NNC(=O)c1ccccc1` ?
0.0116

Another molecule to look at: `NNC(=O)c1ccccc1O`
0.0223

* * *

Please provide measured solubility (mole fraction) for the entries that follow.
STATED_CONDITIONS: in isopropanol, 313.15 K
Just the number, please, no unit attached.

Consider the molecule `NNC(=O)c1ccccc1` and give its measured solubility (mole fraction).
0.0489

Now try `NNC(=O)c1ccccc1O` .
0.0219

* * *

Could you please report measured solubility (mole fraction) for the items listed next?
STATED_CONDITIONS: in methanol, 323.15 K
# answer = number (no unit)

Which value of solubility (mole fraction) has been reported for `NNC(=O)c1ccccc1` in the records?
0.137

Try `NNC(=O)c1ccccc1O` next.
0.0462

* * *

STATED_CONDITIONS: in isopropanol, 288.15 K
MEASUREMENT_LABEL: solubility (mole fraction)
Reply with just the number.

What solubility (mole fraction) value was documented for this compound, `NNC(=O)c1ccccc1` ?
0.0135

Request: `NNC(=O)c1ccccc1O`
0.00841

* * *

Could you please report measured solubility (mole fraction) for the items listed next?
STATED_CONDITIONS: in n-propanol, 308.15 K
Please reply with the number alone, leaving off any unit.

Item under review: `NNC(=O)c1ccccc1` . Reported solubility (mole fraction)?
0.0421

// next record `NNC(=O)c1ccccc1O`
0.0189

Reference source for all entries: BigSolDB 2.1
